Molecular target: T1, GST-human NOGO-A56 (human, UniProt Q9NQC3 586-785)
T1 construct: also called hNOGO; recombinant human NOGO; not shown: Glutathione S-transferase (GST) tag encoded by vector pGEX-6P1, N-terminal to the NOGO-A fragment; the tag and linker se
T1 sequence: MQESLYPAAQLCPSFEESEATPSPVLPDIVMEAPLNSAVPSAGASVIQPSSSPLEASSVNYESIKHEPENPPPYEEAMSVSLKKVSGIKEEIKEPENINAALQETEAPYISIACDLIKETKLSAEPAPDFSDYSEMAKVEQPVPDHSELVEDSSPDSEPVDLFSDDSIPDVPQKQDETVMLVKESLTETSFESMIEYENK
Assay: SPR (Biacore 3000), GST-human NOGO-A56 on CM5 chip, antibody as analyte; single experiment
pKd: −log10 of the molar value.
The following binders are listed with their measured pKd values.

BINDER	pKd
H6L13 (antibody, human IgG1, kappa, V domains shown, Humanised 2A10; human gamma-1 mutated constant region, human kappa; also called H6L13 FL) VH: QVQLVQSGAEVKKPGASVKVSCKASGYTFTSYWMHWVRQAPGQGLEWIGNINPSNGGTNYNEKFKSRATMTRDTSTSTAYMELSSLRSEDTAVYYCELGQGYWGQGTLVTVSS VL: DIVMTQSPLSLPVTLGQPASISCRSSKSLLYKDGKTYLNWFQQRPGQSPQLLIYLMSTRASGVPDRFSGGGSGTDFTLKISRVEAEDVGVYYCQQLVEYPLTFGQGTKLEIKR	8.10
H10L13 (antibody, V domains shown) VH: QVQLVQSGAEVKKPGASVKLSCKASGYTFTSYWMHWVKQAPGQGLEWIGNINPSNGGTNYNEKFKSRATLTVDKSTSTAYMELSSLRSEDTAVYYCELGQGYWGQGTLVTVSS VL: DIVMTQSPLSLPVTLGQPASISCRSSKSLLYKDGKTYLNWFQQRPGQSPQLLIYLMSTRASGVPDRFSGGGSGTDFTLKISRVEAEDVGVYYCQQLVEYPLTFGQGTKLEIK	7.89
